Numbers sourced from PubChem BioAssay AID2060343.

Exercise: for every item that follows, state its recorded viability, T/C.
System: 138582-337-R-J1-PDC spheroids with HUVEC/MSC, viability;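 further: spheroids exposed to compounds for seven days; 100% = DMSO vehicle control viability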
assay.details: Anticancer human tumor 138582-337-R-J1-PDC patient-derived Merkel cell tumor cell line growth inhibition [IpAb]
assay.conditions: second compound 10 µM; first compound 3.16 µM; hits give low values
Answers are plain numbers, in %.

compound | quantitative.result
Cc1nc(NC(=O)N2CCCC2C(N)=O)sc1-c1ccnc(C(C)(C)C(F)(F)F)c1 (configuration not stated) + CC(C)NCC(C(=O)N1CCN(c2ncnc3c2C(C)CC3O)CC1)c1ccc(Cl)cc1 | 15.2
CCCS(=O)(=O)Nc1ccc(F)c(C(=O)c2c[nH]c3ncc(-c4ccc(Cl)cc4)cc23)c1F + CC(C)NCC(C(=O)N1CCN(c2ncnc3c2C(C)CC3O)CC1)c1ccc(Cl)cc1 | 31.1
CC1(C)CCC(CN2CCN(c3ccc(C(=O)NS(=O)(=O)c4ccc(NCC5CCOCC5)c([N+](=O)[O-])c4)c(Oc4cnc5[nH]ccc5c4)c3)CC2)=C(c2ccc(Cl)cc2)C1 + CC(C)NCC(C(=O)N1CCN(c2ncnc3c2C(C)CC3O)CC1)c1ccc(Cl)cc1 | 47.1

Give me viability, T/C for each of these compounds, listed below.
1. C=CCn1c(=O)c2cnc(Nc3ccc(N4CCN(C)CC4)cc3)nc2n1-c1cccc(C(C)(C)O)n1 + CC(C)NCC(C(=O)N1CCN(c2ncnc3c2C(C)CC3O)CC1)c1ccc(Cl)cc1
2. Cn1nccc1Nc1nccc(-c2ccn(C(CO)c3ccc(Cl)c(F)c3)c(=O)c2)n1 (configuration not stated) + CC(C)NCC(C(=O)N1CCN(c2ncnc3c2C(C)CC3O)CC1)c1ccc(Cl)cc1
3. C=CC(=O)N1CCN(c2nc(=O)n(-c3c(C)ccnc3C(C)C)c3nc(-c4c(O)cccc4F)c(F)cc23)C(C)C1 (configuration not stated) + CC(C)NCC(C(=O)N1CCN(c2ncnc3c2C(C)CC3O)CC1)c1ccc(Cl)cc1
4. Cn1ncc(Cl)c1-c1cc(C(=O)NC(CN)Cc2cccc(F)c2)sc1Cl (configuration not stated) + CC(C)NCC(C(=O)N1CCN(c2ncnc3c2C(C)CC3O)CC1)c1ccc(Cl)cc1

output:
60.1
6.51
52.4
44.6
